- System: Streptococcus pyogenes
- Assay Details: Experimental bacterial infection in mice, ED50
- Type: in vivo
- Condition: Streptococcus pyogenes, po, two doses, dose protecting 50% of animals, read-out: Oral ED50
ED50 values, listed per item
Experimental Readout: ED50 (mg/kg)

compound=CC[C@H]1OC(=O)[C@H](C)[C@@H](O[C@H]2C[C@@](C)(OC)[C@@H](O)[C@H](C)O2)[C@H](C)[C@@H](O[C@@H]2O[C@H](C)C[C@H](N(C)C)[C@H]2O)[C@](C)(O)C[C@@H](C)[C@H]2[C@H](C)[C@@H](OCN2C(C)C)[C@]1(C)O experimental_readout=ED50 units=mg/kg reported=6.7
compound=CC[C@H]1OC(=O)[C@H](C)[C@@H](O[C@H]2C[C@@](C)(OC)[C@@H](O)[C@H](C)O2)[C@H](C)[C@@H](O[C@@H]2O[C@H](C)C[C@H](N(C)C)[C@H]2O)[C@](C)(O)C[C@@H](C)[C@H](NCCCCCO)[C@H](C)[C@@H](O)[C@]1(C)O experimental_readout=ED50 units=mg/kg reported=42.6
compound="CCCCCCCN[C@@H]1[C@H](C)[C@@H](O)[C@](C)(O)[C@@H](CC)OC(=O)[C@H](C)[C@@H](O[C@H]2C[C@@](C)(OC)[C@@H](O)[C@H](C)O2)[C@H](C)[C@@H](O[C@@H]2O[C@H](C)C[C@H](N(C)C)[C@H]2O)[C@](C)(O)C[C@H]1C [Compound 7, 9-Deoxo-9-(-n-heptylamino)erythromycin]" experimental_readout=ED50 units=mg/kg reported=30.6

====

- System: Staphylococcus aureus X400
- Assay Details: MIC, standard agar-dilution assay
- Type: cell-based
- Condition: Staphylococcus aureus X400, Methicillin-resistant strain, inducibly-resistant to erythromycin; read-out: MIC
Experimental Readout: MIC (µg/mL)

structure_smiles=CC[C@H]1OC(=O)[C@H](C)[C@@H](O[C@H]2C[C@@](C)(OC)[C@@H](O)[C@H](C)O2)[C@H](C)[C@@H](O[C@@H]2O[C@H](C)C[C@H](N(C)C)[C@H]2O)[C@](C)(O)C[C@@H](C)[C@H](NC)[C@H](C)[C@@H](O)[C@]1(C)O reported=64
structure_smiles=CCCCCCCCCCCCN[C@@H]1[C@H](C)[C@@H](O)[C@](C)(O)[C@@H](CC)OC(=O)[C@H](C)[C@@H](O[C@H]2C[C@@](C)(OC)[C@@H](O)[C@H](C)O2)[C@H](C)[C@@H](O[C@@H]2O[C@H](C)C[C@H](N(C)C)[C@H]2O)[C@](C)(O)C[C@H]1C reported=8

====

- System: Staphylococcus aureus
- Assay Details: Experimental bacterial infection in mice, ED50
- Format: in vivo
- Condition: Staphylococcus aureus, sc, subcutaneous, two doses, dose protecting 50% of animals, read-out: Subcutaneous ED50
Here, each record is paired with measured ED50 data.
Experimental Readout: ED50 (mg/kg)

structure_smiles=CCCN[C@@H]1[C@H](C)[C@@H](O)[C@](C)(O)[C@@H](CC)OC(=O)[C@H](C)[C@@H](O[C@H]2C[C@@](C)(OC)[C@@H](O)[C@H](C)O2)[C@H](C)[C@@H](O[C@@H]2O[C@H](C)C[C@H](N(C)C)[C@H]2O)[C@](C)(O)C[C@H]1C target_of_assay="Staphylococcus aureus" bound_type== reported=6.11
structure_smiles=CC[C@H]1OC(=O)[C@H](C)[C@@H](O[C@H]2C[C@@](C)(OC)[C@@H](O)[C@H](C)O2)[C@H](C)[C@@H](O[C@@H]2O[C@H](C)C[C@H](N(C)C)[C@H]2O)[C@](C)(O)C[C@@H](C)[C@H]2[C@H](C)[C@@H](OCN2C2CCCC2)[C@]1(C)O target_of_assay="Staphylococcus aureus" bound_type== reported=5
structure_smiles=CC[C@H]1OC(=O)[C@H](C)[C@@H](O[C@H]2C[C@@](C)(OC)[C@@H](O)[C@H](C)O2)[C@H](C)[C@@H](O[C@@H]2O[C@H](C)C[C@H](N(C)C)[C@H]2O)[C@](C)(O)C[C@@H](C)[C@H]2[C@H](C)[C@@H](OCN2C(C)C)[C@]1(C)O target_of_assay="Staphylococcus aureus" bound_type=> reported=10
structure_smiles=CC[C@H]1OC(=O)[C@H](C)[C@@H](O[C@H]2C[C@@](C)(OC)[C@@H](O)[C@H](C)O2)[C@H](C)[C@@H](O[C@@H]2O[C@H](C)C[C@H](N(C)C)[C@H]2O)[C@](C)(O)C[C@@H](C)[C@H](NCCCOC)[C@H](C)[C@@H](O)[C@]1(C)O target_of_assay="Staphylococcus aureus" bound_type== reported=3.73
structure_smiles=CC[C@H]1OC(=O)[C@H](C)[C@@H](O[C@H]2C[C@@](C)(OC)[C@@H](O)[C@H](C)O2)[C@H](C)[C@@H](O[C@@H]2O[C@H](C)C[C@H](N(C)C)[C@H]2O)[C@](C)(O)C[C@@H](C)[C@H](NCCOC)[C@H](C)[C@@H](O)[C@]1(C)O target_of_assay="Staphylococcus aureus" bound_type== reported=2.5

====

- Test system: Escherichia coli EC14
- Assay Details: MIC, standard agar-dilution assay
- Type: cell-based
- Condition: read-out: MIC
Experimental Readout: MIC (µg/mL)

compound=CC[C@H]1OC(=O)[C@H](C)[C@@H](O[C@H]2C[C@@](C)(OC)[C@@H](O)[C@H](C)O2)[C@H](C)[C@@H](O[C@@H]2O[C@H](C)C[C@H](N(C)C)[C@H]2O)[C@](C)(O)C[C@@H](C)[C@H](NCCCOC)[C@H](C)[C@@H](O)[C@]1(C)O target_of_assay="Escherichia coli EC14" experimental_readout=MIC bound_type== reported=64
compound=CCCCC/C=C/CCCN[C@@H]1[C@H](C)[C@@H](O)[C@](C)(O)[C@@H](CC)OC(=O)[C@H](C)[C@@H](O[C@H]2C[C@@](C)(OC)[C@@H](O)[C@H](C)O2)[C@H](C)[C@@H](O[C@@H]2O[C@H](C)C[C@H](N(C)C)[C@H]2O)[C@](C)(O)C[C@H]1C target_of_assay="Escherichia coli EC14" experimental_readout=MIC bound_type== reported=128
compound=CCCCN[C@@H]1[C@H](C)[C@@H](O)[C@](C)(O)[C@@H](CC)OC(=O)[C@H](C)[C@@H](O[C@H]2C[C@@](C)(OC)[C@@H](O)[C@H](C)O2)[C@H](C)[C@@H](O[C@@H]2O[C@H](C)C[C@H](N(C)C)[C@H]2O)[C@](C)(O)C[C@H]1C target_of_assay="Escherichia coli EC14" experimental_readout=MIC bound_type== reported=64
compound=CC[C@H]1OC(=O)[C@H](C)[C@@H](O[C@H]2C[C@@](C)(OC)[C@@H](O)[C@H](C)O2)[C@H](C)[C@@H](O[C@@H]2O[C@H](C)C[C@H](N(C)C)[C@H]2O)[C@](C)(O)C[C@@H](C)[C@H](NCCCc2ccccc2)[C@H](C)[C@@H](O)[C@]1(C)O target_of_assay="Escherichia coli EC14" experimental_readout=MIC bound_type== reported=128
compound=CC[C@H]1OC(=O)[C@H](C)[C@@H](O[C@H]2C[C@@](C)(OC)[C@@H](O)[C@H](C)O2)[C@H](C)[C@@H](O[C@@H]2O[C@H](C)C[C@H](N(C)C)[C@H]2O)[C@](C)(O)C[C@@H](C)[C@H](NCC(C)(C)CO)[C@H](C)[C@@H](O)[C@]1(C)O target_of_assay="Escherichia coli EC14" experimental_readout=MIC bound_type== reported=32
compound=CC[C@H]1OC(=O)[C@H](C)[C@@H](O[C@H]2C[C@@](C)(OC)[C@@H](O)[C@H](C)O2)[C@H](C)[C@@H](O[C@@H]2O[C@H](C)C[C@H](N(C)C)[C@H]2O)[C@](C)(O)C[C@@H](C)[C@H](N(C)C2CCCCC2)[C@H](C)[C@@H](O)[C@]1(C)O target_of_assay="Escherichia coli EC14" experimental_readout=MIC bound_type=> reported=128
compound="CCN[C@@H]1[C@H](C)[C@@H](O)[C@](C)(O)[C@@H](CC)OC(=O)[C@H](C)[C@@H](O[C@H]2C[C@@](C)(OC)[C@@H](O)[C@H](C)O2)[C@H](C)[C@@H](O[C@@H]2O[C@H](C)C[C@H](N(C)C)[C@H]2O)[C@](C)(O)C[C@H]1C [Compound 2, (9S)-9-Deoxo-9-(ethylamino)erythromycin]" target_of_assay="Escherichia coli EC14" experimental_readout=MIC bound_type== reported=32
compound=CC[C@H]1OC(=O)[C@H](C)[C@@H](O[C@H]2C[C@@](C)(OC)[C@@H](O)[C@H](C)O2)[C@H](C)[C@@H](O[C@@H]2O[C@H](C)C[C@H](N(C)C)[C@H]2O)[C@](C)(O)C[C@@H](C)[C@H]2[C@H](C)[C@@H](OCN2C2CCCC2)[C@]1(C)O target_of_assay="Escherichia coli EC14" experimental_readout=MIC bound_type== reported=64
compound=CCC(CC)CN[C@@H]1[C@H](C)[C@@H](O)[C@](C)(O)[C@@H](CC)OC(=O)[C@H](C)[C@@H](O[C@H]2C[C@@](C)(OC)[C@@H](O)[C@H](C)O2)[C@H](C)[C@@H](O[C@@H]2O[C@H](C)C[C@H](N(C)C)[C@H]2O)[C@](C)(O)C[C@H]1C target_of_assay="Escherichia coli EC14" experimental_readout=MIC bound_type== reported=64
compound=CCCN1CO[C@@H]2[C@@H](C)[C@@H]1[C@H](C)C[C@@](C)(O)[C@H](O[C@@H]1O[C@H](C)C[C@H](N(C)C)[C@H]1O)[C@@H](C)[C@H](O[C@H]1C[C@@](C)(OC)[C@@H](O)[C@H](C)O1)[C@@H](C)C(=O)O[C@H](CC)[C@@]2(C)O target_of_assay="Escherichia coli EC14" experimental_readout=MIC bound_type== reported=32
compound=CC[C@H]1OC(=O)[C@H](C)[C@@H](O[C@H]2C[C@@](C)(OC)[C@@H](O)[C@H](C)O2)[C@H](C)[C@@H](O[C@@H]2O[C@H](C)C[C@H](N(C)C)[C@H]2O)[C@](C)(O)C[C@@H](C)[C@H](N(C)C)[C@H](C)[C@@H](O)[C@]1(C)O target_of_assay="Escherichia coli EC14" experimental_readout=MIC bound_type== reported=128
compound=CC[C@H]1OC(=O)[C@H](C)[C@@H](O[C@H]2C[C@@](C)(OC)[C@@H](O)[C@H](C)O2)[C@H](C)[C@@H](O[C@@H]2O[C@H](C)C[C@H](N(C)C)[C@H]2O)[C@](C)(O)C[C@@H](C)[C@H](N2CCCCC2)[C@H](C)[C@@H](O)[C@]1(C)O target_of_assay="Escherichia coli EC14" experimental_readout=MIC bound_type=> reported=128
compound=CC[C@H]1OC(=O)[C@H](C)[C@@H](O[C@H]2C[C@@](C)(OC)[C@@H](O)[C@H](C)O2)[C@H](C)[C@@H](O[C@@H]2O[C@H](C)C[C@H](N(C)C)[C@H]2O)[C@](C)(O)C[C@@H](C)[C@H](NC)[C@H](C)[C@@H](O)[C@]1(C)O target_of_assay="Escherichia coli EC14" experimental_readout=MIC bound_type== reported=32
